The entries below are paired with their reported half-life at 0.86 mM.
# assayRemarks: Enzyme-catalyzed hydrolysis in human CD4+ T-lymphocyte CEM cell extracts
# Assay type: in vitro ADME
# conditionDetails: CEM/0 cell extracts (CD4+ T-lymphocytes); human CD4+ T-lymphocyte CEM cell extracts, 37 °C; read-out: CEM/0 cell extracts t 1/2 (converted)

Exam item: Give half-life at 0.86 mM for the following compound: CCCCCCCCCCCCCCCCCCOP(=O)(OCc1ccc(OC(=O)CC)cc1)OP(=O)(O)OP(=O)(O)OCC1C=CC(n2cc(C)c(=O)[nH]c2=O)O1 (stereo not drawn) [6 bz]
Marked response: 1.6 h

Exam item: Give half-life at 0.86 mM for the following compound: CCCCOP(=O)(O)OP(=O)(O)OP(=O)(O)OCC1C=CC(n2cc(C)c(=O)[nH]c2=O)O1 (stereo not drawn) [7 w, γ‐C4‐d4TTP]
Marked response: > 30 h

Exam item: Give half-life at 0.86 mM for the following compound: CCCCCCCCCCCCCCCOP(=O)(OCc1ccc(OC(=O)CCCC)cc1)OP(=O)(O)OP(=O)(O)OCC1C=CC(n2cc(C)c(=O)[nH]c2=O)O1 (stereo not drawn) [6 cy]
Marked response: 3.4 h

---

# System: HIV-2(ROD)
# assayRemarks: Anti-HIV activity assay, HIV-2-infected thymidine-kinase-deficient CEM/TK- cell cultures
# Assay type: cell-based
# conditionDetails: Human immunodeficiency virus 2; thymidine-kinase-deficient CEM/TK− cells, HIV-2; mean±SD, n=2-3; read-out: EC50 CEM/TK− HIV-2
The entries below are paired with their reported log10(EC50).
Recall that a logarithmic scale is used here: each number is log10 of EC50 in µM.

Observe how each entry below is paired with its result.
CCCCCCCCCCCCCCCOP(=O)(OCc1ccc(OC(=O)CCCCCCCCCCCCCCC)cc1)OP(=O)(O)OP(=O)(O)OCC1C=CC(n2cc(C)c(=O)[nH]c2=O)O1 (centres unmarked) | 0.59
CCCCCCCCC(=O)Oc1ccc(COP(=O)(OCc2ccc(OC(=O)CCCCCCCC)cc2)OP(=O)(O)OP(=O)(O)OCC2C=CC(n3cc(C)c(=O)[nH]c3=O)O2)cc1 (centres unmarked) [5 a, reference compound] | 0.35
CCCCOP(=O)(OCc1ccc(OC(=O)CCCC)cc1)OP(=O)(O)OP(=O)(O)OCC1C=CC(n2cc(C)c(=O)[nH]c2=O)O1 (centres unmarked) | 0.99
CCCCCCCCCCCCCCCCCCOP(=O)(OCc1ccc(OC(=O)CCCCCC)cc1)OP(=O)(O)OP(=O)(O)OCC1C=CC(n2cc(C)c(=O)[nH]c2=O)O1 (centres unmarked) | -0.12

Exam item: Give log10(EC50) for the following compound: CCCCCCCCCCCCCCCOP(=O)(OCc1ccc(OC(=O)CCCC)cc1)OP(=O)(O)OP(=O)(O)OCC1C=CC(n2cc(C)c(=O)[nH]c2=O)O1 (centres unmarked)
Marked response: -0.41

---

# System: pig liver esterase (PLE)
# assayRemarks: Enzymatic hydrolysis with pig liver esterase (PLE)
# Assay type: in vitro ADME
# conditionDetails: pig liver esterase (PLE) in PBS; pig liver esterase in PBS, pH 7.3, 37 °C; read-out: t 1/2 with PLE (cleavage of acyloxybenzyl masking unit)
The entries below are paired with their reported half-life at 0.45 mM.
# value in min; strip the unit string

CCCCCCCCCCCCCCCC(=O)Oc1ccc(COP(=O)(OCCCC)OP(=O)(O)OP(=O)(O)OCC2C=CC(n3cc(C)c(=O)[nH]c3=O)O2)cc1 (centres unmarked) | 25.5

Next, consider the following compound.
Exam item: Give half-life at 0.45 mM for the following compound: CCCCCCCCCCCCCCCCCCOP(=O)(OCc1ccc(OC(=O)CCCC)cc1)OP(=O)(O)OP(=O)(O)OCC1C=CC(n2cc(C)c(=O)[nH]c2=O)O1 (centres unmarked)
Marked response: 8.1
